- assayed-target: SARS coronavirus helicase nsP13 (Severe acute respiratory syndrome coronavirus)
endpoint-label: pIC50
# reply with the number alone; pIC50 is -log10 of concentration in mol/L

# return recorded pIC50 for input O=c1cc(-c2ccc(O)cc2)oc2cc(O)c(O)c(O)c12
6.07

The origin of these recorded values is patent US20140194500A1.
